Molecular target: UniProt P97266
Sequence (P97266 whole entry): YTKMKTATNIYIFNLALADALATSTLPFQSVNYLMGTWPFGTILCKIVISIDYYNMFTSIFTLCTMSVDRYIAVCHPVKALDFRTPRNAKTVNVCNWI
Assay: Compound was tested for the inhibition of [3H]- [D-Ala2, N-MePhe4, Gly5-ol]-enkephalin (DAMGO) binding to Opioid receptor mu 1 in guinea pig brain homogenates
Type: tissue-based
pKi: −log10 of the molar value. Positions of bridges follow the written chain, without caps; N, C: chain ends. Non-standard residues stand in square brackets, D forms with d. Residues, ends and D or L forms follow the SMILES beside them. Phe(4-NO2) = N[C@@H](Cc1ccc([N+](=O)[O-])cc1)C(=O)O; Phe(4-tBu) = CC(C)(C)c1ccc(C[C@H](N)C(=O)O)cc1; Phe(4-F) = N[C@@H](Cc1ccc(F)cc1)C(=O)O; mTyr = N[C@@H](Cc1cccc(O)c1)C(=O)O; Pen = CC(C)(S)[C@H](N)C(=O)O
measure.name: pKi

{"columns": ["molecule", "target", "measure.name", "readout.value"],
 "data": [
  ["CC1(C)SSC[C@H](NC(=O)[C@@H](N)Cc2ccc(O)cc2)C(=O)N[C@@H](Cc2ccc(F)cc2)C(=O)N[C@@H]1C(=O)O (H-YC[Phe(4-F)][Pen]-OH; disulfide 2-4)", "UniProt P97266", "pKi", 6.79],
  ["CC1(C)SSC[C@H](NC(=O)[C@@H](N)Cc2ccc(O)cc2)C(=O)N[C@@H](Cc2cccc(O)c2)C(=O)N[C@@H]1C(=O)O (H-YC[mTyr][Pen]-OH; disulfide 2-4)", "UniProt P97266", "pKi", 5.47],
  ["CC1(C)SSC[C@H](NC(=O)[C@@H](N)Cc2ccc(O)cc2)C(=O)N[C@@H](Cc2ccc(O)cc2)C(=O)N[C@@H]1C(=O)O (H-YCY[Pen]-OH; disulfide 2-4)", "UniProt P97266", "pKi", 5.46],
  ["CC1(C)SSC[C@H](NC(=O)[C@@H](N)Cc2ccc(O)cc2)C(=O)N[C@@H](Cc2ccc([N+](=O)[O-])cc2)C(=O)N[C@@H]1C(=O)O (H-YC[Phe(4-NO2)][Pen]-OH; disulfide 2-4)", "UniProt P97266", "pKi", 6.86],
  ["CC(C)(C)c1ccc(C[C@@H]2NC(=O)[C@@H](NC(=O)[C@@H](N)Cc3ccc(O)cc3)CSSC(C)(C)[C@@H](C(=O)O)NC2=O)cc1 (H-YC[Phe(4-tBu)][Pen]-OH; disulfide 2-4)", "UniProt P97266", "pKi", 5.00]
]}
